Tested on: P. aeruginosa CDC-0095
Experiment: microbe, parasite or virus in culture
Type: cell-based
Conditions: Pseudomonas aeruginosa, CDC0095, read-out: Minimum inhibitory concentration, P. aeruginosa CDC-0095
readoutKind: MIC

GET /value?item= O=C(O)c1c(F)ccc2c1OB(O)[C@@H](NC(=O)[C@@H](NC(=O)N1CCN(C3CCN(C(=O)Nc4ccc(O)cc4)CC3)C1=O)c1cc(F)c(O)c(O)c1Cl)C2 (single isomer, unassigned) &field=MIC returns < 1 µg/mL

GET /value?item= O=C(NCCCN1CCN(C(=O)NC(C(=O)N[C@H]2Cc3ccc(F)c(C(=O)O)c3OB2O)c2cc(F)c(O)c(O)c2Cl)C(=O)C1=O)c1c(F)cncc1F (some centres unmarked) &field=MIC returns < 1 µg/mL

GET /value?item= O=C(O)c1c(F)ccc2c1OB(O)[C@@H](NC(=O)[C@H](NC(=O)N1CCN(C3CCN(C(=O)Nc4cccc(O)c4)CC3)C1=O)c1cc(F)c(O)c(O)c1Cl)C2 &field=MIC returns < 1 µg/mL

GET /value?item= O=C(O)c1c(F)ccc2c1OB(O)[C@@H](NC(=O)C(NC(=O)N1CCN(Cc3ccc(O)c(O)c3Cl)C(=O)C1=O)c1ccc(P(=O)(O)O)c(F)c1)C2 (some centres unmarked) &field=MIC returns < 1 µg/mL

GET /value?item= O=C(O)c1c(F)ccc2c1OB(O)[C@@H](NC(=O)[C@@H](NC(=O)N1CCN(C3CCN(S(=O)(=O)c4ccc5[nH]nnc5c4)CC3)C1=O)c1cc(F)c(O)c(O)c1Cl)C2 (single isomer, unassigned) &field=MIC returns > 128 µg/mL

====

Biological target: PBP2 from Neisseria gonorrhoeae (FA19) (Neisseria gonorrhoeae, UniProt P08149)
Sequence (P08149 whole entry): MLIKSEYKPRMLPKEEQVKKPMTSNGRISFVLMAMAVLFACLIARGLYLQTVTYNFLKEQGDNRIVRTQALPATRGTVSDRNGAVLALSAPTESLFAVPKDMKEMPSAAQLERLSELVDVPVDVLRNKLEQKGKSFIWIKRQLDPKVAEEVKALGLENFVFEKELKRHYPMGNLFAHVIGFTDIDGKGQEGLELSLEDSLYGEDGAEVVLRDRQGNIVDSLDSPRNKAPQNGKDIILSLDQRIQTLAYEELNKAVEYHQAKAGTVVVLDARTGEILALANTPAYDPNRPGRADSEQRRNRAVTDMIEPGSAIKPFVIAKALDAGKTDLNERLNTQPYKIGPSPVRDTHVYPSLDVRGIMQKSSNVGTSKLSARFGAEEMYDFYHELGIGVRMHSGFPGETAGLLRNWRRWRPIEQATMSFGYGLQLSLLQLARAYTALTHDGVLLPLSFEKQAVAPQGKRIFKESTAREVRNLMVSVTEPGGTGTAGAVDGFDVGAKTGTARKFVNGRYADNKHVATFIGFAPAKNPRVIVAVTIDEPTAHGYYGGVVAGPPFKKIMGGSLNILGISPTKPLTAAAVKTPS
Assay: Bocillin-FL fluorescence polarization competition binding, N. gonorrhoeae PBP2
Settings: fluorescence polarization competition binding assay using Bocillin-FL, read-out: N. gonorrhoeae PBP2 Potency
readoutKind: EC50

Bench note, PBP2 from Neisseria gonorrhoeae (FA19) (Neisseria gonorrhoeae, UniProt P08149): entry CCN1CCN(C(=O)NC(C(=O)N[C@H]2Cc3cccc(C(=O)O)c3OB2O)c2ccc(P(=O)(O)O)cc2)C1=O (stereo partly drawn) [Example 42] , its EC50 = < 10 µM

Bench note, PBP2 from Neisseria gonorrhoeae (FA19) (Neisseria gonorrhoeae, UniProt P08149): entry CS(=O)(=O)N1CCC[C@@H]1C(=O)N[C@@H](C(=O)N[C@H]1Cc2cccc(C(=O)O)c2OB1O)c1ccc(P(=O)(O)O)cc1 [Example 35] , its EC50 = < 10 µM

Bench note, PBP2 from Neisseria gonorrhoeae (FA19) (Neisseria gonorrhoeae, UniProt P08149): entry NCCN1CCN(C(=O)NC(C(=O)N[C@H]2Cc3cccc(C(=O)O)c3OB2O)c2ccc(P(=O)(O)O)cc2)C(=O)C1=O (stereo partly drawn) [Example 3] , its EC50 = < 10 µM

Bench note, PBP2 from Neisseria gonorrhoeae (FA19) (Neisseria gonorrhoeae, UniProt P08149): entry CS(=O)(=O)N1CCN(C(=O)NC(C(=O)N[C@H]2Cc3cccc(C(=O)O)c3OB2O)c2ccc(P(=O)(O)O)c(F)c2O)C1=O (stereo partly drawn) [Example 48] , its EC50 = < 10 µM

Bench note, PBP2 from Neisseria gonorrhoeae (FA19) (Neisseria gonorrhoeae, UniProt P08149): entry O=C(O)c1cccc2c1OB(O)[C@@H](NC(=O)[C@@H](NC(=O)N1CCCCC1=O)c1ccc(P(=O)(O)O)cc1)C2 [Example 36] , its EC50 = 10 to 50 µM

Bench note, PBP2 from Neisseria gonorrhoeae (FA19) (Neisseria gonorrhoeae, UniProt P08149): entry O=C(O)c1c(F)ccc2c1OB(O)[C@@H](NC(=O)C(NC(=O)N1CCN(Cc3ccc(O)c(O)c3Cl)C(=O)C1=O)c1ccc(P(=O)(O)O)c(F)c1)C2 (stereo partly drawn) [Example 23] , its EC50 = < 10 µM

====

Test system: P. aeruginosa CDC-0110
Test: microbe, parasite or virus in culture
Assay type: cell-based
Conditions: Pseudomonas aeruginosa, CDC0110, read-out: Minimum inhibitory concentration, P. aeruginosa CDC-0110
Consider the following compounds; for each one, report its MIC.

GET /value?item= O=C(O)c1c(F)ccc2c1OB(O)[C@@H](NC(=O)[C@H](NC(=O)N1CCN(C3CCN(C(=O)c4cc(O)ccc4Cl)CC3)C1=O)c1cc(F)c(O)c(O)c1Cl)C2 (single isomer, unassigned) [Example 434] &field=MIC returns < 1 µg/mL

GET /value?item= O=C(O)c1c(F)ccc2c1OB(O)[C@@H](NC(=O)C(NC(=O)N1CCN(C3CCN(C(=O)Nc4cccc(O)c4)CC3)C(=O)C1=O)c1cc(F)c(O)c(O)c1Cl)C2 (some centres unmarked) [Example 424] &field=MIC returns < 1 µg/mL

GET /value?item= O=C(O)c1c(F)ccc2c1OB(O)[C@@H](NC(=O)C(NC(=O)N1CCN(C3CCN(S(=O)(=O)c4ccc(O)cc4)CC3)C(=O)C1=O)c1cc(F)c(O)c(O)c1Cl)C2 (some centres unmarked) [Example 429] &field=MIC returns < 1 µg/mL

GET /value?item= O=C(NCCCS(=O)(=O)N1CCN(C(=O)NC(C(=O)N[C@H]2Cc3ccc(F)c(C(=O)O)c3OB2O)c2cc(F)c(O)c(O)c2Cl)C1=O)c1ccncc1 (some centres unmarked) [Example 272] &field=MIC returns 2 to 4 µg/mL

GET /value?item= O=C(O)c1c(F)ccc2c1OB(O)[C@@H](NC(=O)C(NC(=O)N1CCN(C3CCN(S(=O)(=O)Cc4cccc(O)c4)CC3)C(=O)C1=O)c1cc(F)c(O)c(O)c1Cl)C2 (some centres unmarked) [Example 485] &field=MIC returns < 1 µg/mL

GET /value?item= O=C(O)c1c(F)ccc2c1OB(O)[C@@H](NC(=O)C(NC(=O)N1CCN(C3CCN(S(=O)(=O)c4cccc(O)c4)CC3)C(=O)C1=O)c1cc(F)c(O)c(O)c1Cl)C2 (some centres unmarked) [Example 428] &field=MIC returns < 1 µg/mL

GET /value?item= O=C(NCCN1CCN(C(=O)NC(C(=O)N[C@H]2Cc3ccc(F)c(C(=O)O)c3OB2O)c2cc(F)c(O)c(O)c2Cl)C1=O)c1ccncc1 (some centres unmarked) [Example 245] &field=MIC returns < 1 µg/mL

GET /value?item= O=C(NCCCN1CCN(C(=O)N[C@@H](C(=O)N[C@H]2Cc3ccc(F)c(C(=O)O)c3OB2O)c2cc(F)c(O)c(O)c2Cl)C(=O)C1=O)c1ccncc1O [Example 296] &field=MIC returns < 1 µg/mL

GET /value?item= CN(CCN1CCN(C(=O)N[C@@H](C(=O)N[C@H]2Cc3ccc(F)c(C(=O)O)c3OB2O)c2cc(F)c(O)c(O)c2Cl)C(=O)C1=O)Cc1ccc(C(N)=O)cc1 [Example 226] &field=MIC returns < 1 µg/mL

GET /value?item= O=C(CN1CCN(C(=O)NC(C(=O)N[C@H]2Cc3ccc(F)c(C(=O)O)c3OB2O)c2cc(F)c(O)c(O)c2Cl)C(=O)C1=O)NCc1ccccc1 (some centres unmarked) [Example 238] &field=MIC returns < 1 µg/mL

GET /value?item= O=C(NCCN1CCN(C(=O)NC(C(=O)N[C@H]2Cc3ccc(F)c(C(=O)O)c3OB2O)c2cc(F)c(O)c(O)c2Cl)C(=O)C1=O)c1nccs1 (some centres unmarked) [Example 218] &field=MIC returns 2 to 4 µg/mL

====

Consider the following compounds; for each one, report its MIC.
Tested on: N. gonorrhoeae MS11
Assay: Liquid broth MIC in Fastidious broth
Conditions: Neisseria gonorrhoeae, MS11, read-out: Minimum Inhibitory Concentration (MIC), N. gonorrhoeae MS11

Bench note, N. gonorrhoeae MS11: entry O=C(CN1CCN(C(=O)NC(C(=O)N[C@H]2Cc3ccc(F)c(C(=O)O)c3OB2O)c2cc(F)c(O)c(O)c2Cl)C(=O)C1=O)Nc1nccs1 (stereo partly shown) , its MIC = 16 to 32 µg/mL

Bench note, N. gonorrhoeae MS11: entry O=C(NC(C(=O)N[C@H]1Cc2cccc(C(=O)O)c2OB1O)c1ccc(P(=O)(O)O)cc1)c1ccc(Cl)cn1 (stereo partly shown) , its MIC = < 1 µg/mL

Bench note, N. gonorrhoeae MS11: entry O=C(O)c1cccc2c1OB(O)[C@@H](NC(=O)C(NC(=O)[C@H]1CCCN1)c1ccc(P(=O)(O)O)cc1)C2 (stereo partly shown) , its MIC = 16 to 32 µg/mL

Bench note, N. gonorrhoeae MS11: entry CCN1CCN(C(=O)NC(C(=O)N[C@H]2Cc3cccc(C(=O)O)c3OB2O)c2ccc(P(=O)(O)O)c(O)c2)C(=O)C1=O (stereo partly shown) , its MIC = < 1 µg/mL

Bench note, N. gonorrhoeae MS11: entry O=C(NCCCN1CCN(C(=O)NC(C(=O)N[C@H]2Cc3ccc(F)c(C(=O)O)c3OB2O)c2cc(F)c(O)c(O)c2Cl)C(=O)C1=O)c1ccc(O)cc1 (stereo partly shown) , its MIC = 4 to 8 µg/mL

Bench note, N. gonorrhoeae MS11: entry CCN1CCN(C(=O)NC(C(=O)N[C@H]2Cc3cccc(C(=O)O)c3OB2O)c2ccc(S(=O)(=O)O)cc2)C(=O)C1=O (stereo partly shown) , its MIC = < 1 µg/mL

Bench note, N. gonorrhoeae MS11: entry O=C(NCCN1CCN(C(=O)NC(C(=O)N[C@H]2Cc3ccc(F)c(C(=O)O)c3OB2O)c2cc(F)c(O)c(O)c2Cl)C1=O)c1cccc(O)c1 (stereo partly shown) , its MIC = > 64 µg/mL
